Target or system Apoptosis regulator Bcl-2 (Homo sapiens, UniProt P10415); metric Ki; compiled from varied reports.
# value in µM; strip the unit string

Exam item: Under Apoptosis regulator Bcl-2 (Homo sapiens, UniProt P10415): Ki value of Cc1cc(Oc2ccc(Cn3nc4ccc(Cl)cc4c3C(=O)NS(=O)(=O)c3ccc([N+](=O)[O-])c(NCc4cccnc4)c3)cc2)cc(C)c1Cl ?
Marked response: 1.22

Exam item: Query for Apoptosis regulator Bcl-2 (Homo sapiens, UniProt P10415): what Ki does the record show for COc1ccc2c(c1)c(CC(=O)NS(=O)(=O)c1ccc(Cl)c([N+](=O)[O-])c1)c(C)n2-c1ccc(-c2ccccc2)cc1 ?
Marked response: 0.72

Exam item: Form field: Ki recorded for O=C(NS(=O)(=O)c1ccc(Cl)c([N+](=O)[O-])c1)[C@H](Cc1ccccc1)N1C(=O)/C(=C/c2ccc(-c3ccc(Cl)cc3)cc2)SC1=S with Apoptosis regulator Bcl-2 (Homo sapiens, UniProt P10415) (enter value)
Marked response: 1.9

Exam item: State its Ki on Apoptosis regulator Bcl-2 (Homo sapiens, UniProt P10415): Cc1cc(OCCCc2c3n(c4c(-c5c(C)nn(C)c5C)c(Cl)ccc24)CCCN(c2cccc4c(C(=O)O)cccc24)C3=O)cc(C)c1Cl
Sequence (P10415 whole entry): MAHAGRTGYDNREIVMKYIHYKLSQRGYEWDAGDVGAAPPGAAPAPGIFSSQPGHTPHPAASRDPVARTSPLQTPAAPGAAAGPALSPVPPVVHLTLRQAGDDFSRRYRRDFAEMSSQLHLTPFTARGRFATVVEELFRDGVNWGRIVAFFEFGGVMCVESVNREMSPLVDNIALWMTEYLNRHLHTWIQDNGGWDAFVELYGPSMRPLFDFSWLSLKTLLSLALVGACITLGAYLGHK
Marked response: 0.25

Exam item: Lab note: need Ki with Apoptosis regulator Bcl-2 (Homo sapiens, UniProt P10415) for entry Cc1cc(Oc2ccc(Cn3nc4ccc(Cl)cc4c3C(=O)NS(=O)(=O)c3ccc([N+](=O)[O-])c(N4CCOCC4)c3)cc2)cc(C)c1Cl , please look it up.
Marked response: 0.9
